- assay-comment: GST activity of purified recombinant protein toward acetochlor
- Assay type: biochemical
- conditions: thiol GSH; recombinant enzyme; ±SE, n=2
observation-type: GST activity toward acetochlor, GSH (pkat mg-1)
Give just the number in pkat mg-1; leave the unit off.

Look over these answered cases.
{"columns": ["molecule", "units", "GST activity toward acetochlor, GSH"],
 "data": [
  ["GST 3.2: Recombinant soybean Glutathione-S-transferase 3.2, SEQ ID No. 9 (protein, Glycine max) MAEVKLHGFWYSPYTLRVVWTLKLKDIPYQNIEEDRYNKSLQLLEYNPVYKKTPVLVHNGKPLCESMLIVEYIDEIWAHNSLLPADPYERALARFWVKYADDDMFSAVIAFFLSNNDEEREKSIEKIWEHLRVVENQCFGDQKKFFGGDIINIMDIAFGSIFKILVVAEDILDAKVLEDEKFPHLHSWYNNFKDVAVIKENLPDHEKMVAFAKFIREKRLACT", "pkat mg-1", 418.0],
  ["GST 3.1: Recombinant soybean Glutathione-S-transferase 3.1, SEQ ID No. 8 (protein, Glycine max) MAEQDKVILHGMWASPYAKRVELALNFKGIPYEYVEEDLRNKSDLLLKYNPVHKKVPVLVHNGKAIAESMVILEYIDETWKDGPKLLPSDSYKRAQARFWCHFIQDQLMESTFLVVKTDGEAQQKAIDHVYEKLKVLEDGMKTYLGEGNAIISGVENNFGILDIVFCALYGAYKAHEEVIGLKFIVPEKFPVLFSWLMAIAEVEAVKIATPPHEKTVGILQLFRLSALKSSSATE", "pkat mg-1", 190.5]
]}

# next molecule below
IN: Could you share which GST activity toward acetochlor, GSH value was measured for GST 2.6: Recombinant soybean Glutathione-S-transferase 2.6, SEQ ID No. 7 (protein, Glycine max) MSSSQEEVTLLGVVGSPFLHRVQIALKLKGVEYKYLEDDLNNKSDLLLKYNPVYKMIPVLVHNEKPISESLVIVEYIDDTWKNNPILPSDPYQRALARFWAKFIDDKCVVPAWKSAFMTDEKEKEKAKEELFEALSFLENELKGKFFGGEEFGFVDIAAVLIPIIQEIAGLQLFTSEKFPKLSKWSQDFHNHPVVNEVMPPKDQLFAYFKARAQSFVAKRKN ?
OUT: 352.5
